B1: glmS ribozyme (parent)
chain: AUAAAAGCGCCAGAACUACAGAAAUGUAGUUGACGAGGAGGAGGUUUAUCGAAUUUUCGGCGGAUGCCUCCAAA

# Variants of: B1
# protocol.notes: self-cleavage kobs at 10000 uM GlcN6P; higher = faster cleavage; RNA array
# cond: with glucosamine-6-phosphate
Fewer inactive variants are shown than the library holds.
Kind request: treat 0.0004 s⁻¹ as inclusive, so self-cleavage kobs at 10000 uM GlcN6P at 0.0004 s⁻¹ or higher is met, anything lower is not met.

Recorded results for 6 variants are shown here.
mutation_key="G7C G37U U47C G59U G66U C70U" class="not met"
mutation_key="A14G A23C A64U" class="not met"
mutation_key="A14G A33U G43A" class="not met"
mutation_key="U47G A48U U56G C68A" class="not met"
mutation_key="G59A A64U" class="not met"
mutation_key="G32C G62C C67U" class="not met"

Determine whether this variant has self-cleavage kobs at 10000 uM GlcN6P no lower than 0.0004 s⁻¹: U31C C34G G37A A42U U47A A52U
not met
